The entries below are paired with their reported α BRD4^BD2 (binding cooperativity factor).
assay.target: BRD4^BD2 (Homo sapiens, UniProt O60885)
Construct: to the isolated BD1 and BD2 domains of BRD2, BRD3 and BRD4
assay.protocol: competitive fluorescence polarization assay, BRD4 BD2 -/+ presenter protein
Type: binding
settings: ratio of binding in absence or presence of FKBP12
attribute.measured: α BRD4^BD2 (binding cooperativity factor)

compound: Cc1sc2c(c1C)C(c1ccc(C#CCNC(=O)COCCn3cc(COCC4CN(Cc5ccccn5)C(=O)C5CCCC4N5S(=O)(=O)c4cc(Cl)cc(Cl)c4)nn3)cc1)=NC(CC(=O)OC(C)(C)C)c1nnc(C)n1-2 (stereo not drawn) [b3d]
recorded.number: 0.1
//
compound: Cc1sc2c(c1C)C(c1ccc(Cl)cc1)=NC(CC(=O)N1CCC(CN3CCC(n4cc(COCC5CN(Cc6ccccn6)C(=O)C6CCCC5N6S(=O)(=O)c5cc(Cl)cc(Cl)c5)nn4)CC3)CC1)c1nnc(C)n1-2 (stereo not drawn) [a7d]
recorded.number: 1
//
compound: Cc1sc2c(c1C)C(c1ccc(Cl)cc1)=NC(CC(=O)N1CCC(CN3CCC(Cn4cc(C5CN(Cc6ccccn6)C(=O)C6CCCC5N6S(=O)(=O)c5cc(Cl)cc(Cl)c5)nn4)CC3)CC1)c1nnc(C)n1-2 (stereo not drawn) [a8c]
recorded.number: 1.2
